Where do the numbers come from? From the supplement of paper PMC8728848.

- ASSAYED_SYSTEM: Gal(b1-4)GlcNAc(b1-2)[Gal(b1-4)GlcNAc(b1-4)]Man(a1-3)[Gal(b1-4)GlcNAc(b1-2)[Gal(b1-4)GlcNAc(b1-6)]Man(a1-6)]Man(b1-4)GlcNAc(b1-4)GlcNAc
- PROTOCOL_SUMMARY: glycan array binding signal (z-score within array); higher = stronger binding
- TEST_PARAMETERS: glycan notation: IUPAC condensed, linker removed
This is one part of a sample in which the strongest signals are shown more often than they occur.
REPORTED_ENDPOINT: glycan array binding signal (z-score)
Hey, just send me the number, nothing else.

So what does the record say about glycan array binding signal (z-score) for MAL-II (Maackia amurensis), P93248 (protein) ATSNSKPTQVLLATFLTFFFLLLNNVNSSDELSFTINNFVPNEADLLFQGEASVSSTGVLQLTRVENGQPQQYSVGRALYAAPVRIWDNTTGSVASFSTSFTFVVKAPNPTITSDGLAFFLAPPDSQIPSGRVSKYLGLFNNSNSDSSNQIVAVEFDTYFGHSYDPWDPNYRHIGIDVNGIESIKTVQWDWINGGVAFATITYLAPNKTLIASLVYPSNQTSFIVAASVDLKEILPEWVRVGFSAATGYPTQVETHDVLSWSFTSTLEANSDAATENNVHIARYTA ?
-0.229
